Answer each item with its documented IC50.
- Target entity: recombinant MAP4K4 enzyme (Homo sapiens)
- Sequence (O95819 whole entry): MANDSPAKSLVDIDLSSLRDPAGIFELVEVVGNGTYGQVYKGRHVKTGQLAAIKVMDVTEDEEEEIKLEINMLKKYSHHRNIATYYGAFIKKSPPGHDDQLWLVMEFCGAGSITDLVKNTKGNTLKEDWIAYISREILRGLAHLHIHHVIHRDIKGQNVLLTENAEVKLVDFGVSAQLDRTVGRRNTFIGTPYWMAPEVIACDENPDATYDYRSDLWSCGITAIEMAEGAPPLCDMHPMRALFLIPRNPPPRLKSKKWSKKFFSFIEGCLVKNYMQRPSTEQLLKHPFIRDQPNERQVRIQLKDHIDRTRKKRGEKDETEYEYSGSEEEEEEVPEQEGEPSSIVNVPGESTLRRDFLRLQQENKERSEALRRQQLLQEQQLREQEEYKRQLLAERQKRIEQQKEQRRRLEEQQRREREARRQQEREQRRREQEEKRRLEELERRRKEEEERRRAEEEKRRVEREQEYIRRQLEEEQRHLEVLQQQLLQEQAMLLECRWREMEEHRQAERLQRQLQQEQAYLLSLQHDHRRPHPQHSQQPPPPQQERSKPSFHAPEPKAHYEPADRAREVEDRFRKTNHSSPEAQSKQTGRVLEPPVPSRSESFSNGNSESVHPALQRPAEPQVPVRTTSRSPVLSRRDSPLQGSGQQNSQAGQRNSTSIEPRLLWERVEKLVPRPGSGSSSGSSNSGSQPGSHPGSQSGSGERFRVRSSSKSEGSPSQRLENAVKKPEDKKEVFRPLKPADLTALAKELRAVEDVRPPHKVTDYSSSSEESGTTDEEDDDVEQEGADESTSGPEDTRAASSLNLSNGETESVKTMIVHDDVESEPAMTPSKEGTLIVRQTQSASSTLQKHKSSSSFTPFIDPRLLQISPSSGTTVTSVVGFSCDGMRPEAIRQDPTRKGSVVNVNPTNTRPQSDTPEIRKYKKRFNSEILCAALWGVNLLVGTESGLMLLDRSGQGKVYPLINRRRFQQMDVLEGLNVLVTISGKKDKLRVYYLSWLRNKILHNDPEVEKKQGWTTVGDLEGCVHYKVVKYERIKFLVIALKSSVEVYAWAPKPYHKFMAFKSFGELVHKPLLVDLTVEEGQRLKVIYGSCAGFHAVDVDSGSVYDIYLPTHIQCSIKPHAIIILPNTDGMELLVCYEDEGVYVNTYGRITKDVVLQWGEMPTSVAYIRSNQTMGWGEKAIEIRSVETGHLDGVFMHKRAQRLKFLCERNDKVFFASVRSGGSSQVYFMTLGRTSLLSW
- Experiment description: MAP4K4 inhibition assay (cell free, MBP substrate, ADP detection)
- Test conditions: recombinant MAP4K4, MBP substrate, 48 μM ATP, compounds titrated from 900 nM, read-out: concentration for 50% inhibition of MAP4K4 (IC50)
- Description: MAP4K4 inhibition assay: MAP4K4 assay for IC50 determination was performed using a kit by BioAssay Systems Services (Hayward, CA). Briefly, MAP4K4 in assay buffer (40 ng in 10 μL) was incubated with varying concentrations of test compounds (5 μL in dimethylsulfoxide) for 15 min at 37° C. The compounds were titrated from 900 nM (final reaction concentration) in 3× steps. […] These kinase reactions were stopped with an ADP detection reagent and fluorescence was measured at 530Ex/590Em. […]
Give bare numbers, in nM.

Compound	Target entity	IC50 / nM
COCCOc1ccc(-c2cn(-c3ccccc3)c3nc[nH]c(=O)c23)cc1 [DMX-5804]	recombinant MAP4K4 enzyme (Homo sapiens)	206

Attention now turns to another entry.
Reported IC50 of O=c1[nH]cnc2c1c(-c1ccc(OC3OC(CO)C(O)C3O)cc1)cn2-c1ccccc1 (centres unmarked) [Compound 9] : 256
